# credit: PubChem BioAssay (NCI)

protocol summary: NCI Yeast Anticancer Drug Screen. Data for the mec2-1 strain (AID 157)
condition: S. cerevisiae mec2-1 strain, at 5.0 µM (retest, dose inferred, filed as 0.5)
About 79,000 compounds went through this panel and 15% of them were active in at least one assay; those are over-represented in the sample as a whole. The source made the active and inactive calls. No stated cut-off is given here; in the data, active means growth inhibition above about 70%; inactive means the rest.
Could you please pick one outcome from this set? 1 (yes) (active), 0 (no) (inactive)

Study these solved cases before continuing.
- C[n+]1c(/C=C/c2cccc([N+](=O)[O-])c2)sc2ccccc21: 0 (no)
- CN(C)C(=S)SSSSC(=S)N(C)C: 1 (yes)
- Nc1ccccc1Sc1ccc(F)cc1[N+](=O)[O-]: 0 (no)
- COC1C(N)C(OC2C(Oc3cccc4c(O)c5c(=O)oc6ccc(C)c7c(=O)oc(c34)c5c67)OC(C)C(O)C2(C)O)OC(C)C1O (stereo not drawn): 0 (no)
- COC(=O)C1(c2ccc(N(C)C)cc2OC)CCCN(C(=O)Oc2ccccc2[N+](=O)[O-])CCc2c1[nH]c1ccccc21 (stereo not drawn): 1 (yes)
- O=C1c2ccccc2C(=O)c2c1ccc(O)c2O.[Cu]: 0 (no)

Query string: Which outcome was assigned to Oc1ccc2c(c1)OCC1c3ccccc3OC21 (stereo not drawn) in this test?
Result string: 0 (no)

Query string: Here is the next molecule: COC(=O)c1ccc2c(c1)C(O)NC(=O)O2 (stereo not drawn)
Result string: 0 (no)

Query string: Cc1cn(C2OC(CO)C(O)C(O)C2N)c(=O)[nH]c1=O (stereo not drawn) ?
Result string: 0 (no)

Query string: Try this molecule too: Cc1cc(Oc2nc(Cl)nc(C(Cl)(Cl)Cl)c2Cl)cc(C)c1N(C)C (tested in a mixture with another compound)
Result string: 0 (no)

Query string: Another molecule to look at: COc1ccc(OC)c(/C=C/c2ccnc3ccccc23)c1
Result string: 0 (no)

Query string: Then COc1ccc(C(=O)Cn2c(C(C)=O)nc3ccccc32)cc1 ?
Result string: 0 (no)

====

Quick list: growth inhibition per entry.
protocol summary: NCI Yeast Anticancer Drug Screen. Data for the mlh1 rad18 strain (AID 175)
condition: S. cerevisiae mlh1 rad18 strain growth inhibition; at 5.0 µM (retest, dose inferred, filed as 0.5); active compounds read high
About 79,000 compounds went through this panel and 15% of them were active in at least one assay; those are over-represented in the sample as a whole.
Hi! Could you send only the number? It should be in %, unit omitted.

* Cc1cc(O)cc(C)c1[N+](=O)[O-] | 4
* Clc1ccccc1C(Cc1c(Cl)cccc1Cl)Cn1ccnc1 (stereo not given) | 77
* C=C1CC2(C[C@@H](c3ccccc3)O[C@@H](c3ccccc3)C2)OC1=O (stereo not given in full) | 15

Query string: Value lookup for growth inhibition; key = O=C(c1ccccc1)C(C(=O)c1ccccc1)c1ccc2ccccc2n1
Result string: -2

Query string: Now consider CN1CCN(CC(C(=O)O)(c2ccccc2)c2ccccc2)CC1 and answer again.
Result string: -1

Query string: Now give it for S=C(C#Cc1ccccc1)Nc1ccccc1 too.
Result string: -93

Query string: What about this compound? O=C1C=CC(=O)C2C3C=CC(CC3)C12 (stereo not given)
Result string: 11

Query string: Now consider O=[N+]([O-])c1ccc(S(=O)(=O)N/N=C/C=C/c2ccccc2)cc1 and answer again.
Result string: 6

Query string: Now the compound Cc1cc(=O)n(C)c2c(C)cccc12
Result string: -145

Query string: Follow-up item: CC1(C)NNC(=S)NN1
Result string: 20

====

protocol summary: NCI Yeast Anticancer Drug Screen. Data for the cln2 rad14 strain (AID 165);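 further: 0% = growth equal to vehicle treated cultures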
condition: S. cerevisiae cln2 rad14 strain, at 50.0 µM, active compounds read high
About 79,000 compounds went through this panel and 15% of them were active in at least one assay; those are over-represented in the sample as a whole.
Decide using growth inhibition: a value greater than or equal to 80% is 1.0, a smaller one is 0.0.

As a guide, the following entries are already answered.
* Cc1[nH]nc(C(=O)OC(C)C)c1N=NN(C)C | 1.0
* O=C1C=CC(=O)c2c(O)c(N3CCN(CCOCCO)CC3)c(Br)c(O)c21 | 1.0
* CC(C)=CCC/C(C)=C/CC/C(C)=C/CC/C=C(\C)CC/C=C(\C)CCC[N+](C)(C)[O-] | 1.0
* NNC(=S)Nc1ccccc1 | 0.0

Query string: Form field: growth inhibition at least 80%? Entry: O[Si](O)(c1ccccc1)c1ccccc1
Result string: 1.0

Query string: Same question for N#CCc1nc(Cl)cc(Cl)n1 please.
Result string: 0.0

====

protocol summary: NCI Yeast Anticancer Drug Screen. Data for the cln2 rad14 strain (AID 165);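 further: 0% = growth equal to vehicle treated cultures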
condition: S. cerevisiae cln2 rad14 strain, at 50.0 µM (retest, dose inferred, filed as 5.0)
This is part of a sample that, as a whole, favours compounds with a hit. Of some 79,000 tested, about 15% had one in any assay. Active and inactive are the calls of the source. Rule as the data show it: active = growth inhibition above about 70%; inactive = the rest.
Response enum: t for active, f for inactive

See these solved cases before continuing.
* O=S1(=O)c2ccccc2C(Br)C1Br (centres undefined) | t
* COc1cc(C(c2cc3c(cc2OC(C)=O)OCO3)C(C(C)=O)C(C)=O)cc(OC)c1OC(C)=O (centres undefined) | f
* O=c1oc(-c2ccccc2Br)ns1 | t

Note: attention shifts to another entry.
Query string: Dear colleague, could you share the recorded outcome for C=C(CC)C[C@@H]1C[C@]2(C(=O)OC)c3[nH]c4ccccc4c3CCN2C1=O when you have a moment?
Result string: t

====

protocol summary: NCI Yeast Anticancer Drug Screen. Data for the cln2 rad14 strain (AID 165);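 further: 0% = growth equal to vehicle treated cultures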
condition: S. cerevisiae cln2 rad14 strain, at 50.0 µM (retest, dose inferred, filed as 5.0), active compounds read high
About 79,000 compounds went through this panel and 15% of them were active in at least one assay; those are over-represented in the sample as a whole. The source made the active and inactive calls. Cut-off read from the data, not from the text of the source: active = growth inhibition above about 70%; inactive = the rest.
quantity kind: growth inhibition

Record excerpt, results attached:
* Nc1ccc(S(=O)(=O)Nc2ccccc2)cc1 | -6% (inactive)
* Cc1ccc(NCCNCCO)c2c(=O)c3ccccc3sc12 | 99% (active)

Query string: I would be grateful if you could share the reported growth inhibition for CC(C)N=Cc1cc(I)cc(I)c1O.CC(C)N=Cc1cc(I)cc(I)c1O.[Co] .
Result string: 98% (active)

====

protocol summary: NCI Yeast Anticancer Drug Screen. Data for the mlh1 rad18 strain (AID 175)
condition: S. cerevisiae mlh1 rad18 strain growth inhibition; at 50.0 µM; active compounds read high
This is part of a sample that, as a whole, favours compounds with a hit. Of some 79,000 tested, about 15% had one in any assay.
Assign class by growth inhibition: not lower than 60% means MET; lower than 60% means NOT MET.

- Nc1ccccc1N=Cc1ccccc1O: MET
- Cc1nc2c([N+](=O)[O-])c(N3CCCCC3)c([N+](=O)[O-])cc2[nH]1: MET
- CN(Nc1ccc(Cl)cc1)c1ccc(Cl)cc1: MET
- CCN(CC)CCNc1ccc(C)c2sc3c(OC)cccc3c(=O)c12: NOT MET
- O=C1CSc2ccccc2-n2cccc21: NOT MET

Query string: Textbook exercise: given the entry OC1c2ccccc2C2(O)C1C(c1ccccc1)C(c1ccccc1)C2(O)c1ccccc1 (configuration not stated) , state whether its growth inhibition is greater than or equal to 60%.
Result string: MET

Query string: Try this compound too: CC(C)C(Cl)CC/C(CBr)=C(\Cl)CCl (configuration not stated)
Result string: NOT MET

Query string: And CC1(c2ccc3ccccc3c2)C(C#N)(C#N)C1(C#N)C#N ?
Result string: MET

Query string: O=c1oc2ccccc2c(O)c1/C=N/C(=S)NCCc1ccccc1 ?
Result string: NOT MET

Query string: Next compound: C/C(=N\NC(=O)C[n+]1ccccc1)c1sc(-c2nc(C)c(/C(C)=N/NC(=O)C[n+]3ccccc3)s2)nc1C
Result string: MET

====

protocol summary: NCI Yeast Anticancer Drug Screen. Data for the bub3 strain (AID 167)
condition: S. cerevisiae bub3 mutant strain, at 50.0 µM
Compounds without any hit were thinned out: in the full panel of roughly 79,000, 15% have a hit. Activity calls are given as the source filed them. No stated cut-off is given here; in the data, active means growth inhibition above about 70%; inactive means the rest.
Log the outcome using a class from True = active, False = inactive

# example entries with known answers
• C=C(C)[P+](C)(c1ccccc1)c1ccccc1 = False
• NC(=O)CCSC(=S)N1CCOCC1 = False
• CCCCCCCCCCNCCSSCCNC(C)=O = True

Query string: Name the outcome recorded for CCCC1(C)C(C#N)(C#N)C1(C#N)C#N in the assay.
Result string: True

Query string: Please do the same for CC(=O)O[C@H]1CC[C@]2(C)C34OC3C[C@]3(C)[C@@H](C(C)=O)CC[C@H]3[C@]43C=C[C@@]2(C1)C1C(=O)OC(=O)C13 (stereo partly specified) as well.
Result string: True

Query string: Also O=[N+]([O-])/C=C\c1csc2ccccc12 ?
Result string: True

Query string: Cool, now O=C(/C=C\c1ccc([N+](=O)[O-])o1)/C=C/c1ccc([N+](=O)[O-])o1
Result string: True
